Target: DNA polymerase eta core, wild-type (Homo sapiens)
Sequence: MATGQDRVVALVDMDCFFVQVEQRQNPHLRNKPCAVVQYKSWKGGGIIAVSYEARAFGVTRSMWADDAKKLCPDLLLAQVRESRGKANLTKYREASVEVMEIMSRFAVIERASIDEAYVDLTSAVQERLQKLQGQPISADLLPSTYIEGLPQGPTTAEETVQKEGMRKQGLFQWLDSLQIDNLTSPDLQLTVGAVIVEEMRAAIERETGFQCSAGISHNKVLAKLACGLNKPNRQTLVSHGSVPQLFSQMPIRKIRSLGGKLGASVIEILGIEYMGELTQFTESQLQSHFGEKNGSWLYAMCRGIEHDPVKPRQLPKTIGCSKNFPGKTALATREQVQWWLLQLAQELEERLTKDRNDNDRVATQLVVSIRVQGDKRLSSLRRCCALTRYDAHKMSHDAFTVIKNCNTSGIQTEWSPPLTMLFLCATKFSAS
Assay: fluorescence polarization
Conditions: cis-syn cyclobutane thymine dimer at T7-T8 of the 25-mer template; 50 mM HEPES-KOH pH 7.5, 10 mM potassium acetate, 2 mM beta-mercaptoethanol, 0.1 mg/mL BSA, 5 mM MgCl2; 2 nM DNA; temperature not stated
TEST_READOUT: Kd (µM)
API: value field is a number in µM; no unit string.

The recorded Kd for CACCATCCACTAC / ATGTAGTTGTAGTGGATGGTGGTAC [13-FAM-mer/25-CTD-mer] is 0.011

---

Target: DNA polymerase eta core, wild-type (Homo sapiens) (UniProt Q9Y253)
Sequence: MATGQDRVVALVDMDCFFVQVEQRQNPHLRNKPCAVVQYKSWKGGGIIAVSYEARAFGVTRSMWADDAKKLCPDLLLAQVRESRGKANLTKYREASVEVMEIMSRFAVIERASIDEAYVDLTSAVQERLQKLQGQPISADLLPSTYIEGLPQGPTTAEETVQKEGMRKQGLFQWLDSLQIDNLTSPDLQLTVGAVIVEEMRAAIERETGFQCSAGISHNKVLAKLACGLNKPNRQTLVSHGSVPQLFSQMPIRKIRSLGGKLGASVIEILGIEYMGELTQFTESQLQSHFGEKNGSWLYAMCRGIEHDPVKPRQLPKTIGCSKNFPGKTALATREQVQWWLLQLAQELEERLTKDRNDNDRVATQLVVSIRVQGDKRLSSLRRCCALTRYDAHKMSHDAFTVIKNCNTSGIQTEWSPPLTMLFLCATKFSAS
Experiment: fluorescence polarization
Details: 50 mM HEPES-KOH pH 7.5, 10 mM potassium acetate, 2 mM beta-mercaptoethanol, 0.1 mg/mL BSA, 5 mM MgCl2; 2 nM DNA; temperature not stated
TEST_READOUT: Kd (nM)
API: value field is a number in nM; no unit string.

The recorded Kd for CACCATCCACTAC / ATGTAGTTGTAGTGGATGGTGGTAC [13-FAM-mer/25-TT-mer] is 10
